Biological target: Acetylcholinesterase (Homo sapiens, UniProt P22303)
Sequence (P22303 whole entry): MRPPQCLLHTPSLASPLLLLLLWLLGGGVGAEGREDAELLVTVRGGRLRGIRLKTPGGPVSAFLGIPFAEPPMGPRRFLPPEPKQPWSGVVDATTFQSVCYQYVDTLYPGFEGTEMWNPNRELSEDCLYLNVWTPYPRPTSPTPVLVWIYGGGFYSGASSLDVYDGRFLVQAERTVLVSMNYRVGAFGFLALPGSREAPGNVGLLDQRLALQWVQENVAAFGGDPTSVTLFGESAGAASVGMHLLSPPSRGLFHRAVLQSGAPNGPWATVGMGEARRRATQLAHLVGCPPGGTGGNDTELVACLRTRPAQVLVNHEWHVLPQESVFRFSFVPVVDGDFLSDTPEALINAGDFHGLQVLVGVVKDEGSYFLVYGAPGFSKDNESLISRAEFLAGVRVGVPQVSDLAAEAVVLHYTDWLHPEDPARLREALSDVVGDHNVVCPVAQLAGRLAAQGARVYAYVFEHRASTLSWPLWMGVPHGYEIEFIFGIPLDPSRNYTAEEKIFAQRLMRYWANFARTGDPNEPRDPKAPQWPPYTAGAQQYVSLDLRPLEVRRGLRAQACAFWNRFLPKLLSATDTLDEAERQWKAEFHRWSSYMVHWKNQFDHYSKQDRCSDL
Assay: Inhibition of human recombinant AChE using acetylthiocholine iodide substrate incubated for 15 mins by spectrophotometry based Ellman's method
Kindly state pIC50 for each of the entries shown.
Numbers only, as −log10 of the molar value.

Here is how some compounds turned out for pIC50.
O=c1oc2cc(OCCCCN3CCN(Cc4ccccc4)CC3)ccc2c2ccccc12 ... 5.09
O=c1oc2cc(OCCN3CCC(Cc4ccccc4)CC3)ccc2c2ccccc12 ... 4.70
O=c1oc2cc(OCCCN3CCC(Cc4ccccc4)CC3)ccc2c2ccccc12 ... 5.39
O=c1oc2cc(OCCN3CCC(Cc4ccccc4)CC3)ccc2c2c1CCCC2 ... 5.09

// query Return the recorded pIC50 value; entry: "O=c1oc2cc(OCCCCN3CCC(Cc4ccccc4)CC3)ccc2c2c1CCCC2"
// result 5.04

###

Biological target: Acetylcholinesterase (Homo sapiens)
Assay: Inhibition of human recombinant AChE using acetylthiocholine iodide substrate incubated for 15 mins by spectrophotometry based Ellman's method
What pIC50 was measured for each of the following?
Answers are plain numbers, as −log10 of the molar value.

COc1cccc(CN2CCN(CCCOc3ccc4c(c3)oc(=O)c3ccccc34)CC2)c1 ... 4.74
CN(CCCCOc1ccc2c(c1)oc(=O)c1ccccc12)Cc1ccccc1 ... 5.96

Moving on to another compound below.
// query For the compound "O=c1oc2cc(OCCCCN3CCN(Cc4ccccc4)CC3)ccc2c2c1CCCC2" , give its reported pIC50.
// result 5.19

###

Kindly supply the reported Ratio IC50 values for the records listed here.
Species on record: Homo sapiens
Assay: Selectivity index, ratio of IC50 for human recombinant BuChE to IC50 for human recombinant AChE

COc1cccc(CC2CCN(CCOc3ccc4c(c3)oc(=O)c3ccccc34)CC2)c1 ... > 1

Record Ratio IC50 per entry; entries follow.
1. COc1cccc(CN(C)CCOc2ccc3c4c(c(=O)oc3c2)CCCC4)c1
2. COc1cccc(CN2CCN(CCCCOc3ccc4c(c3)oc(=O)c3ccccc34)CC2)c1
3. O=c1oc2cc(OCCCCN3CCN(Cc4ccccc4)CC3)ccc2c2ccccc12
4. O=c1oc2cc(OCCCCN3CCC(Cc4ccccc4)CC3)ccc2c2ccccc12
5. CN(CCCOc1ccc2c(c1)oc(=O)c1ccccc12)Cc1ccccc1

// result
["> 6", "> 1", "> 4", "> 2", 1.7]

List the reported Ratio IC50 of each compound below.
1. O=c1oc2cc(OCCCN3CCN(Cc4ccccc4)CC3)ccc2c2ccccc12
2. CN(CCCOc1ccc2c3c(c(=O)oc2c1)CCCC3)Cc1ccccc1

// result
1. 4.6
2. 7.6
